Biological target: T1, human CD1a protein (pool B) (human, UniProt P06126 18-295, limits assumed)
T1 construct: Recombinant protein of the ELISA (coated) and the Biacore T200 titration; whole entry named; also called human CD1a pool B; full length CD1a
T1 sequence (P06126 18-295 limits assumed): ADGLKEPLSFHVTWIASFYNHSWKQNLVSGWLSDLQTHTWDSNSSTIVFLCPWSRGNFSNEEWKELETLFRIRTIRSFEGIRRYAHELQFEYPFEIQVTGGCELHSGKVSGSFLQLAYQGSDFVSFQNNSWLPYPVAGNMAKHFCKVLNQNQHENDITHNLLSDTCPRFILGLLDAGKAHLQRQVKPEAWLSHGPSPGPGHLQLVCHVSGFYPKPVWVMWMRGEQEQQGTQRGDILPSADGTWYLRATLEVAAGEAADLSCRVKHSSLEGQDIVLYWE
Assay: ELISA, 0.316 µg/ml antibody
observable: Optical Density (OD)
Write the number in OD without appending the unit.

110 (VR12112) (antibody, V domains shown, also called OX110; antibody 110) VH: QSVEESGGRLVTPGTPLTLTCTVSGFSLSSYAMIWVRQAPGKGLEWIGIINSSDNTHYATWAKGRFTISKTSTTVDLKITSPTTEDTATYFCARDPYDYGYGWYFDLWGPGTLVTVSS VL: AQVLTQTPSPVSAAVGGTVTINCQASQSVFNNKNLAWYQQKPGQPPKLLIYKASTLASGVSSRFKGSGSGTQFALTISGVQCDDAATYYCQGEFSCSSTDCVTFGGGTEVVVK : 1.18
111 (VR12113) (antibody, V domains shown, also called OX111) VH: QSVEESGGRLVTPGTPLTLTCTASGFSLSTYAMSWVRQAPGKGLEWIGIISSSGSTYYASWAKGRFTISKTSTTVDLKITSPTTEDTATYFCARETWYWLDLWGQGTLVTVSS VL: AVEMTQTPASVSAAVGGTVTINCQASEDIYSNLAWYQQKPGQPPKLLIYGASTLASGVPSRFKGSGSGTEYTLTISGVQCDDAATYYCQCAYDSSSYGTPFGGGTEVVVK : 1.04
77A (VR11851) (antibody, V domains shown, also called OX77a; antibody 77a) VH: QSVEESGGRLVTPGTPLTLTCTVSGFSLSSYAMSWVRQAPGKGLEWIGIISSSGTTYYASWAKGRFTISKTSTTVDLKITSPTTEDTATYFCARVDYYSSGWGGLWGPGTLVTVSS VL: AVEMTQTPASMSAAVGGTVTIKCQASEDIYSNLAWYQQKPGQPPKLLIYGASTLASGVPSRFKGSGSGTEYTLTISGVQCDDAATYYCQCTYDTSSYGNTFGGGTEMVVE : 1.39

Please find the next binder below.
// query What does the record list as Optical Density (OD) for 116 (VR12117) (antibody, V domains shown, also called OX116) VH: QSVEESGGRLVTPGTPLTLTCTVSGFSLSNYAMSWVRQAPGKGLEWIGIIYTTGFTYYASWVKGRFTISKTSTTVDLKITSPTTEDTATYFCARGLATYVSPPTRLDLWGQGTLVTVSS VL: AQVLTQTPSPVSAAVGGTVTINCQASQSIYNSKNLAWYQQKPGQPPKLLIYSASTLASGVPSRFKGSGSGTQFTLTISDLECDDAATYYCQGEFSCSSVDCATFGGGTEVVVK ?
// result 1.15
